A collection of compounds and their measured tissue uptake at 120 h
Test: Biodistribution of 177Lu-labeled αMSH analogues in mice bearing B16F10 mouse melanoma
Format: in vivo, C57BL/6J mice
Conditions: mouse, brain, iv, total radioactivity; 120 h p.i., C57BL/6J mice, B16F10 melanoma; read-out: Biodistribution, Brain
Write the value in %ID/g as a bare number.

Example entries and their recorded answers appear below.
compound: CCCC[C@H](NC(=O)CN1CCC(NC(=O)[C@H](CCCCNC(=O)CN2CCN(CC(=O)O)CCN(CC(=O)O)CCN(CC(=O)O)CC2)NC(=O)[C@H](CCC(=O)O)NC(=O)CCCc2ccc(I)cc2)CC1)C(=O)N[C@H]1CC(=O)NCCCC[C@@H](C(N)=O)NC(=O)[C@H](Cc2c[nH]c3ccccc23)NC(=O)[C@H](CCCNC(=N)N)NC(=O)[C@@H](Cc2ccccc2)NC(=O)[C@H](Cc2c[nH]cn2)NC1=O [^177Lu-labeled CCZ01082, metal not drawn]
unitOfMeasurement: %ID/g
tissue uptake at 120 h: 0.01
//
compound: CCCC[C@H](NC(=O)CN1CCC(NC(=O)[C@H](CCCCNC(=O)CN2CCN(CC(=O)O)CCN(CC(=O)O)CCN(CC(=O)O)CC2)NC(=O)[C@H](CCC(=O)O)NC(=O)CCCc2ccc(I)cc2)CC1)C(=O)N[C@H]1CC(=O)NCCCC[C@@H](C(N)=O)N(C)C(=O)[C@H](Cc2c[nH]c3ccccc23)N(C)C(=O)[C@H](CCCNC(=N)N)N(C)C(=O)[C@@H](Cc2ccccc2)NC(=O)[C@H](Cc2c[nH]cn2)N(C)C1=O [^177Lu-labeled CCZ01088, metal not drawn]
unitOfMeasurement: %ID/g
tissue uptake at 120 h: 0.01

(Q) // tissue uptake at 120 h lookup, key: CCCC[C@H](NC(=O)CN1CCC(NC(=O)[C@H](CCCCNC(=O)CN2CCN(CC(=O)O)CCN(CC(=O)O)CCN(CC(=O)O)CC2)NC(=O)[C@H](CCC(=O)O)NC(=O)CCCc2ccc(I)cc2)CC1)C(=O)N[C@H]1CC(=O)NCCCC[C@@H](C(N)=O)N(C)C(=O)[C@H](Cc2c[nH]c3ccccc23)NC(=O)[C@H](CCCNC(=N)N)N(C)C(=O)[C@@H](Cc2ccccc2)NC(=O)[C@H](Cc2c[nH]cn2)NC1=O [^177Lu-labeled CCZ01118, metal not drawn]
(A) 0.01
